System: MS2 coat protein
Assay: apparent Kd, MS2 coat protein; higher = weaker binding; RNA-MaP array; tryptophan 2.4 mM where present
Conditions: ligand present: tryptophan; designed as: OFF switch for tryptophan
Answer Condition not met if apparent Kd is under 40 nM, and Condition met if it is 40 nM or more.

In [3]: df
Out[3]:
                              item_sequence  assigned_category
0  GAUAUGGAAACAUGUCAGAUCCUUACCGGUCGAGGACCGGUACGGCCGCCACUCGAAAAUAAUAAACAUGAGGAUCACCCAUGUA  Condition not met
1  GAGGAAACUCACAUGAGGAUCACCCAUGUACGAGGACCGGUACGGCCGCCACUCGAAACCAUGGGCGGUUGUACAUGGAAACAUG      Condition met
2  GAGUAGAAGACGGCCGCCACUAAACAUGAGGAUCACCCAUGUCGUGAUCCGUUACCUAGAGUAGAUAGGACCGGGUCAUAUAGUC  Condition not met
3  AAUGUGAAGGCGGCCGCCACUGAUAAUAGACAUGAGGAUCACCCAUGUAUAAAUCCUCAAUAAGACAGGACCGGGCCAACUACGU      Condition met
4  AAGCUUCGCAUAGGAAAACUAUGUGAAGCUCGAGGACCGGUACGGCCGCCACUCGUCCUCAACAUGAGGAUCACCCAUGUAAUAA  Condition not met
